Method: folding stability dG unfold (combined trypsin and chymotrypsin); higher = more stable
Decide by folding stability dG unfold: equal to or exceeding 2 kcal/mol means YES, less means NO.

// below: answered sequences
[
  {
    "Sequence Record": "SYLPESVPYDLVELTVVAKGKSPEYLEKKIKEAFKDVKIEPFYDPEKKLVTFKIVFPNKETAEKFKELVSSA [r9_764_TrMRF]",
    "Assigned Class": "YES"
  },
  {
    "Sequence Record": "SAGGPIKRDPDGKIEIHYNEDNGRWHVKIRDPGKPKKEREFKSPDDANEFAKSFANDGWKIDKVEPYPSAGG [r13_727_TrROS]",
    "Assigned Class": "NO"
  },
  {
    "Sequence Record": "SAGGSGDPNAAPVVVKVTIDITRPTADDSYVTSPVELTLLESEVDEFLAELEKEPDLELKVEVTLESAGGSA [r2_270_JUSTAS]",
    "Assigned Class": "NO"
  },
  {
    "Sequence Record": "SAGGSAMKTLTATFSDGRSVTVEPENRTVTVSTPESSISTIPVPPDVPEVTITTPSGVTITLTVDTSAGGSA [r2_385_JUSTAS]",
    "Assigned Class": "NO"
  },
  {
    "Sequence Record": "SPKITIDVETNKNGRGYIRFKFNGREREIRIPSNMTPEGAKEKARDIANTLQKRYQENGRPLKIEEIEIYSA [r9_751_TrROS]",
    "Assigned Class": "NO"
  }
]

Task: In plain terms: is recorded folding stability dG unfold at least 2 kcal/mol for SAGGSAGGSAEELAKKLAEELGVKVEVEEKDGKLVVKIEKKKAKPKPKKVEKKKYYSEEELKSAGGSAGGSA [r18_27_TrROS_Hall] ?
Output: NO
